- assayTarget: PKC α (Homo sapiens)
- assayName: Protein Kinase C Scintillation Proximity Assay (SPA), PKC-α
- conditionDescription: inhibition value, recombinant human isozyme, 1 μM ATP
Note to self: IC50 under 300 nM means y, ties and anything higher get n.

Given the entry O=C1NC(=O)C2=C1c1cn(c3ccccc13)Cc1cccc(n1)Cn1cc2c2cccnc21 , would its reported IC50 be below 300 nM?
n

Given the entry CC(C)N1CCOCCn2cc(c3ccccc32)C2=C(C(=O)NC2=O)c2cn(c3ccccc23)CCOCC1 , would its reported IC50 be below 300 nM?
y

Given the entry O=C1NC(=O)C2=C1c1cn(c3ncccc13)CCOCCOCCOCCOCCOCCn1cc2c2cccnc21 , would its reported IC50 be below 300 nM?
n

Given the entry O=C1NC(=O)C2=C1c1cn(c3ccccc13)CCOCCOCCOCCOCCn1cc2c2ccccc21 , would its reported IC50 be below 300 nM?
n

Given the entry CN1CCCn2cc(c3ccccc32)C2=C(C(=O)NC2=O)c2cn(c3ccccc23)CCOCCOCC1 , would its reported IC50 be below 300 nM?
y

Given the entry O=C1NC(=O)C2=C1c1cn(c3ccccc13)CCOCCOCCOCCn1cc2c2cccnc21 , would its reported IC50 be below 300 nM?
n

Given the entry CN1CCN(C)CCn2cc(c3ccccc32)C2=C(C(=O)NC2=O)c2cn(c3ccccc23)CCN(C)CC1 , would its reported IC50 be below 300 nM?
y

Given the entry CN1CCOCCn2cc(c3ccccc32)C2=C(C(=O)NC2=O)c2cn(c3ccccc23)CCOCC1 , would its reported IC50 be below 300 nM?
y

Given the entry O=C1NC(=O)C2=C1c1cn(c3ccccc13)Cc1cccc(c1)Cn1cc2c2cccnc21 , would its reported IC50 be below 300 nM?
n

Given the entry O=C1NC(=O)C2=C1c1cn(c3ccccc13)CCOCCOCCOCCOCCOCCn1cc2c2ccccc21 , would its reported IC50 be below 300 nM?
n

Given the entry O=C1NC(=O)C2=C1c1cn(c3ccccc13)CCOCCOCCn1cc2c2cccnc21 , would its reported IC50 be below 300 nM?
n

Given the entry O=C1NC(=O)C2=C1c1cn(c3ccccc13)CCOCCOCCOCCn1cc2c2ccccc21 , would its reported IC50 be below 300 nM?
n

Given the entry O=C1NC(=O)C2=C1c1cn(c3ccccc13)CCOCCOCCn1cc2c2ccccc21 , would its reported IC50 be below 300 nM?
n

Given the entry CCN1CCOCCn2cc(c3ccccc32)C2=C(C(=O)NC2=O)c2cn(c3ccccc23)CCOCC1 , would its reported IC50 be below 300 nM?
y

###

- assayTarget: PKC-βI (Homo sapiens)
- Construct: purchased PanVera, Madison Wis; host or cells: baculovirus expression vector
- Sequence (P05771 whole entry): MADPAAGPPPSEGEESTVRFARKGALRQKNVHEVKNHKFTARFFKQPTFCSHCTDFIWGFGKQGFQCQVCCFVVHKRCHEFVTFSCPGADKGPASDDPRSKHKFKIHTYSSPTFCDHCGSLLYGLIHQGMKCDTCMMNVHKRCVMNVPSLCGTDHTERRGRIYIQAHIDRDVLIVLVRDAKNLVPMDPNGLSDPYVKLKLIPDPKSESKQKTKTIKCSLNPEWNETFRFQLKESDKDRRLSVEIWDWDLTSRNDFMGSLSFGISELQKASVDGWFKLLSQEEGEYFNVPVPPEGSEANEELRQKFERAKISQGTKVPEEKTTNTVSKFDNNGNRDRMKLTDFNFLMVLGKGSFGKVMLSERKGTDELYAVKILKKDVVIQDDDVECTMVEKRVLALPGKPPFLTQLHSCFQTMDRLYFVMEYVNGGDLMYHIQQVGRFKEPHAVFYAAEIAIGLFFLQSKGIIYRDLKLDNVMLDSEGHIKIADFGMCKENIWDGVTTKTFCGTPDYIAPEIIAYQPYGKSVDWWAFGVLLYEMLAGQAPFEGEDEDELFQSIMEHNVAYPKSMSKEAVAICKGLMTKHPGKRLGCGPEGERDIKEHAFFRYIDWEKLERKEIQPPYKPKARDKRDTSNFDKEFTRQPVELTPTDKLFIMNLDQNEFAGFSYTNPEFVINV
- assayName: Protein Kinase C Scintillation Proximity Assay (SPA), PKC-βI
- Type: biochemical
- conditionDescription: inhibition value, recombinant human isozyme, 1 μM ATP
pIC50: −log10 of the molar value.
Exercise: for every item that follows, state its recorded pIC50.

Note pIC50 for the molecule shown: O=C1NC(=O)C2=C1c1cn(c3ncccc13)CCOCCOCCOCCOCCn1cc2c2cccnc21 [Cpd 2]
< 4.00

Note pIC50 for the molecule shown: O=C1NC(=O)C2=C1c1cn(c3ncccc13)CCOCCOCCOCCOCCOCCn1cc2c2cccnc21 [Cpd 3]
< 4.00

Note pIC50 for the molecule shown: O=C1NC(=O)C2=C1c1cn(c3ccccc13)CCOCCOCCOCCOCCn1cc2c2ccccc21 [Cpd 6]
5.83

###

- assayTarget: PKC-βI (Homo sapiens)
- assayName: Protein Kinase C Scintillation Proximity Assay (SPA), PKC-βI
- conditionDescription: inhibition value, recombinant human isozyme, 1 μM ATP
Exercise: for every item that follows, state its recorded pIC50.
Value format note: pIC50 is -log10 of concentration (mol/L); just state the number.

Note pIC50 for the compound shown: O=C1NC(=O)C2=C1c1cn(c3ncccc13)CCOCCOCCOCCn1cc2c2cccnc21 [Cpd 1]
4.73

Note pIC50 for the compound shown: O=C1NC(=O)C2=C1c1cn(c3ccccc13)CCOCCOCCn1cc2c2ccccc21 [Cpd 4]
5.80

Note pIC50 for the compound shown: O=C1NC(=O)C2=C1c1cn(c3ccccc13)CCOCCOCCOCCn1cc2c2cccnc21 [Cpd 11]
5.98

Note pIC50 for the compound shown: O=C1NC(=O)C2=C1c1cn(c3ccccc13)CCOCCOCCOCCn1cc2c2ccccc21 [Cpd 5]
6.46

Note pIC50 for the compound shown: O=C1NC(=O)C2=C1c1cn(c3ccccc13)Cc1cccc(c1)Cn1cc2c2cccnc21 [Cpd 8]
5.75

Note pIC50 for the compound shown: O=C1NC(=O)C2=C1c1cn(c3ccccc13)CCOCCOCCOCCOCCOCCn1cc2c2ccccc21 [Cpd 7]
5.51

Note pIC50 for the compound shown: O=C1NC(=O)C2=C1c1cn(c3ccccc13)Cc1cccc(n1)Cn1cc2c2cccnc21 [Cpd 9]
6.47

Note pIC50 for the compound shown: O=C1NC(=O)C2=C1c1cn(c3ccccc13)CCOCCOCCn1cc2c2cccnc21 [Cpd 10]
5.29

###

Exercise: for every item that follows, state its recorded IC50.
- assayTarget: PKC-γ (Homo sapiens)
- assayName: Protein Kinase C Scintillation Proximity Assay (SPA), PKC-γ
- conditionDescription: inhibition value, recombinant human isozyme, 1 μM ATP
Answer in nM, number only, no unit symbol.

Note IC50 for the molecule shown: O=C1NC(=O)C2=C1c1cn(c3ccccc13)CCOCCOCCOCCn1cc2c2ccccc21
1350

Note IC50 for the molecule shown: O=C1NC(=O)C2=C1c1cn(c3ccccc13)CCOCCOCCOCCOCCOCCn1cc2c2ccccc21
3260

Note IC50 for the molecule shown: O=C1NC(=O)C2=C1c1cn(c3ncccc13)CCOCCOCCOCCn1cc2c2cccnc21
38700

Note IC50 for the molecule shown: O=C1NC(=O)C2=C1c1cn(c3ccccc13)CCOCCOCCOCCOCCn1cc2c2ccccc21
4000

Note IC50 for the molecule shown: O=C1NC(=O)C2=C1c1cn(c3ccccc13)Cc1cccc(n1)Cn1cc2c2cccnc21
228

Note IC50 for the molecule shown: O=C1NC(=O)C2=C1c1cn(c3ccccc13)CCOCCOCCn1cc2c2ccccc21
3460

Note IC50 for the molecule shown: O=C1NC(=O)C2=C1c1cn(c3ccccc13)CCOCCOCCn1cc2c2cccnc21
7800

Note IC50 for the molecule shown: O=C1NC(=O)C2=C1c1cn(c3ccccc13)Cc1cccc(c1)Cn1cc2c2cccnc21
783

Note IC50 for the molecule shown: CCN1CCOCCn2cc(c3ccccc32)C2=C(C(=O)NC2=O)c2cn(c3ccccc23)CCOCC1
150

Note IC50 for the molecule shown: O=C1NC(=O)C2=C1c1cn(c3ccccc13)CCOCCOCCOCCn1cc2c2cccnc21
2850

Note IC50 for the molecule shown: CC(C)N1CCOCCn2cc(c3ccccc32)C2=C(C(=O)NC2=O)c2cn(c3ccccc23)CCOCC1
34

Note IC50 for the molecule shown: CN1CCOCCn2cc(c3ccccc32)C2=C(C(=O)NC2=O)c2cn(c3ccccc23)CCOCC1
370

Note IC50 for the molecule shown: CN1CCN(C)CCn2cc(c3ccccc32)C2=C(C(=O)NC2=O)c2cn(c3ccccc23)CCN(C)CC1
22

Note IC50 for the molecule shown: CN1CCCn2cc(c3ccccc32)C2=C(C(=O)NC2=O)c2cn(c3ccccc23)CCOCCOCC1
24

###

- assayTarget: PKC-βII (Homo sapiens, UniProt P05771)
- Sequence (P05771 1-673 isoform P05771-2): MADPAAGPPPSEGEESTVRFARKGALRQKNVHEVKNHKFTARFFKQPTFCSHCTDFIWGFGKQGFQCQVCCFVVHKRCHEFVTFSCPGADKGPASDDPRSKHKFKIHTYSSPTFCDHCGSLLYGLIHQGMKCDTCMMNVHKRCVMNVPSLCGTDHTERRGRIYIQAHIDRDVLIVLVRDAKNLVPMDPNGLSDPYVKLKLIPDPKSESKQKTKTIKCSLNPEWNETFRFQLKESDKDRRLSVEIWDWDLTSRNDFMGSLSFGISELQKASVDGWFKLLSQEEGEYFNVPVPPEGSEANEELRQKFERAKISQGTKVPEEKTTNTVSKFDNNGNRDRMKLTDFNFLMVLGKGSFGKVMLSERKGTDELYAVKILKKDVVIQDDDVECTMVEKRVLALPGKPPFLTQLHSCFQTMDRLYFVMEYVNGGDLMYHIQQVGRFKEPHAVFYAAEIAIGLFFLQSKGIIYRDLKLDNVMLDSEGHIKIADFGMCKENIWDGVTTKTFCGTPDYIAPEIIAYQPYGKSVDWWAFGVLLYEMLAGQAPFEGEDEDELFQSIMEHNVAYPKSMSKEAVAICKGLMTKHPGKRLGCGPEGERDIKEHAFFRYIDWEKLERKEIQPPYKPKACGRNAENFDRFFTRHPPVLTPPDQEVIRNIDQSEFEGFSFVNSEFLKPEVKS
- assayName: Protein Kinase C Scintillation Proximity Assay (SPA), PKC-βII
- conditionDescription: inhibition value, recombinant human isozyme, 1 μM ATP
- Method: The binding activity of a compound for Protein Kinase C (PKC) was assessed using a homogeneous Scintillation Proximity Assay according to the procedure below. […]
Exercise: for every item that follows, state its recorded pIC50.
Value format note: pIC50 is -log10 of concentration (mol/L); just state the number.

Note pIC50 for the compound shown: O=C1NC(=O)C2=C1c1cn(c3ccccc13)CCOCCOCCOCCn1cc2c2ccccc21 [Cpd 5]
7.80

Note pIC50 for the compound shown: CN1CCN(C)CCn2cc(c3ccccc32)C2=C(C(=O)NC2=O)c2cn(c3ccccc23)CCN(C)CC1 [Cpd 15]
7.57

Note pIC50 for the compound shown: O=C1NC(=O)C2=C1c1cn(c3ccccc13)CCOCCOCCOCCn1cc2c2cccnc21 [Cpd 11]
7.14

###

- assayTarget: VEGF-R (Rattus norvegicus, UniProt O08775)
- Construct: polyhistidine (N)
- Sequence (O08775 786-1343): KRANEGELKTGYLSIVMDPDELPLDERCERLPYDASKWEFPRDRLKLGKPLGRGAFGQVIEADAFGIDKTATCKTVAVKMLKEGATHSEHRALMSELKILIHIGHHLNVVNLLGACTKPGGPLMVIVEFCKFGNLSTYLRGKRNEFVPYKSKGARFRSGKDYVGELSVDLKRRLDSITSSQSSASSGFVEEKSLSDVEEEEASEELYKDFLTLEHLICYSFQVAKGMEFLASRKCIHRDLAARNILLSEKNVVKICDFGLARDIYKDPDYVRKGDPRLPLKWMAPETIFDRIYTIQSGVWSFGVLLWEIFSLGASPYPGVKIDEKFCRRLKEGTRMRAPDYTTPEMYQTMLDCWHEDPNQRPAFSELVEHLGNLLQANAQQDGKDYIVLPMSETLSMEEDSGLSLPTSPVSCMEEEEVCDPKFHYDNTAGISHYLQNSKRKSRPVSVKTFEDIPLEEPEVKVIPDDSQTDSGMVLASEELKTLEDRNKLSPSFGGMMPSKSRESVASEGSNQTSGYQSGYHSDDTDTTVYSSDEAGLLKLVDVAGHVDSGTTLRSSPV
- assayName: Biotinylated Peptide Substrate Assay, VEGF-R
- Format: biochemical
- conditionDescription: read-out: VEGF-R Kinase Assay (IC50 uM)
measure: IC50 (µM)
Answer in µM, number only, no unit symbol.

Note IC50 for the compound shown: O=C1NC(=O)C2=C1c1cn(c3ccccc13)CCOCCOCCn1cc2c2cccnc21
1.2

Note IC50 for the compound shown: O=C1NC(=O)C2=C1c1cn(c3ccccc13)CCOCCOCCOCCn1cc2c2cccnc21
0.889
